IC50 listing for selected molecules.
# System: CCRF-HSB-2
# assayNotes: Antiproliferative effects on CCRF-HSB-2 (human leukemia) cells.
# Type: functional, cell-based

O=c1[nH]c(=O)n([C@H]2S[C@H](CO)[C@@H](O)[C@@H]2O)cc1/C=C/Cl :: > 100 µg/mL
Nc1ncnc2c1ncn2[C@@H]1O[C@H](CO)[C@@H](O)[C@@H]1O [VIDARABINE] :: 12.9 µg/mL
O=c1[nH]c(=O)n([C@@H]2S[C@H](CO)[C@@H](O)[C@@H]2O)cc1I :: > 100 µg/mL

Now consider the entry below.
Tell me its IC50 given `Nc1nc(O)c2ncn([C@@H]3S[C@H](CO)[C@@H](O)[C@@H]3O)c2n1` as the entry.
0.29 µg/mL
